Ref: PubChem BioAssay AID1211

# target: Estrogen receptor (Homo sapiens) (UniProt P03372)
# Sequence (P03372 whole entry, looked up): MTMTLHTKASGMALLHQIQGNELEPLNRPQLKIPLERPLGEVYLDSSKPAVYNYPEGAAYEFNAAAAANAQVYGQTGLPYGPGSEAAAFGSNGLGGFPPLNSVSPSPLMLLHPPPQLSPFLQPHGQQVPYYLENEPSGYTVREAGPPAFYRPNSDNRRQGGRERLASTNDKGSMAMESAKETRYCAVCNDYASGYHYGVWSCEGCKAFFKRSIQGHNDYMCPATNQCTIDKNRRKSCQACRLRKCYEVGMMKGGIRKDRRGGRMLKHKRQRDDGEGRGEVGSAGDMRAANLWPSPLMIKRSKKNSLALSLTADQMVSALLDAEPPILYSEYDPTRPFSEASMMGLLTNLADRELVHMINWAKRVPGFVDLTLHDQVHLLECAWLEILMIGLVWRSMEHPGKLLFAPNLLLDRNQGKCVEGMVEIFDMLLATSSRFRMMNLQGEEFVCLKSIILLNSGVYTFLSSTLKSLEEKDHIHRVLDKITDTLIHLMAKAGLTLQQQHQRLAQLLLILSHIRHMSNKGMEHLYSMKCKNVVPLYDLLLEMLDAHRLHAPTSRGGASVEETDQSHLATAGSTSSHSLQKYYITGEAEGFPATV
# assayOverview: ERalpha ligand binders by competition, primary screen, cell-based, Cos7 ERalpha-GFP, flow cytometry (AID 1211);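 further: 0% = DMSO vehicle wells and 100% = no E2-Alexa633 signal left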
# protocolConditions: fluorescent ligand competition, at 10 µM
The source made the active and inactive calls. How the calls were made is not given here.
Outcome codes: yes (1) for active, no (0) for inactive

molecule	answerLabel
O=c1cc(O)c2c(=O)n(-c3ccccc3)c3c(c2o1)CCCCCC3	no (0)
Nc1ccc2nc(-c3ccc(Cl)cc3)[nH]c2c1	no (0)
COc1ccc2c(c1OC)C(=O)N1N=C(c3ccc(O)cc3)CC21 (configuration not stated)	no (0)
O=C(O)c1ccc2c(c1)C1C=CCC1C(c1cccc([N+](=O)[O-])c1)N2 (configuration not stated)	yes (1)
CCCCCc1nnc(NC(=O)Cc2cccs2)s1	no (0)
COc1cc(O)c2c(=O)c3c(OC)c(O)ccc3oc2c1	no (0)
O=c1cc(CSc2nnc(-c3cccs3)n2Cc2ccccc2)nc2sc3ccccc3n12	no (0)
COc1ccc(CNC(=O)COC(=O)c2cc(-c3ccco3)nc3ccccc23)cc1	no (0)
CCOC(=O)c1c(/N=C/c2ccc(O)cc2O)sc2c1CCC2	no (0)
Cc1cc(C)nc(NC(=O)CSc2nn(C)c(=S)s2)n1	no (0)
COc1ccc(OC)c(C2Nc3c(Cl)ccc(C(=O)O)c3C3C=CCC32)c1 (configuration not stated)	no (0)
CC(C)C1Nc2ccc(C(=O)O)cc2C2C=CCC21 (configuration not stated)	no (0)
C=C1C2C[C@H](O)C(C)(C)[C@@]2(O)[C@H](O)C[C@]23C[C@@](C)(O)[C@H](CC[C@H]12)[C@H]3O (some centres not stated)	no (0)
Oc1ccc(/C=N/n2c(-c3ccco3)csc2=Nc2cccnc2)c(O)c1	no (0)
O=C(Cn1ncc2c(=O)oc3ccccc3c21)Nc1nc2ccccc2s1	no (0)
Oc1ccccc1N=Nc1nc(-c2ccccc2)c(-c2ccccc2)[nH]1	no (0)
CCOC(=O)Cc1cc(=O)n2[nH]c(-c3ccc(C)cc3)cc2n1	no (0)
COc1cc(-c2nc3ccc4ccccc4c3c3c2CCC3)cc(OC)c1O	no (0)
CCC(=O)Nc1ccc(C(=O)Cn2nc(C(=O)O)c3ccccc3c2=O)cc1	no (0)
Cc1ccc(S(=O)(=O)N2CCCCC2)cc1C(=O)Nc1ncn[nH]1	no (0)
CCCc1cc(=O)oc2c(C)c(OC3CCCCC3=O)ccc12 (configuration not stated)	no (0)
O=C(O)c1cc(Cl)c2c(c1)[C@@H]1C=CC[C@@H]1[C@H](c1ccc(S(=O)(=O)N3CCOCC3)cc1)N2	no (0)

====

# target: Estrogen receptor (Homo sapiens)
# assayOverview: ERalpha ligand binders by competition, primary screen, cell-based, Cos7 ERalpha-GFP, flow cytometry (AID 1211);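 further: 0% = DMSO vehicle wells and 100% = no E2-Alexa633 signal left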
# protocolConditions: fluorescent ligand competition, binding inhibition, at 0.1 µM, stronger effect = higher value
Hi, to clarify the labels: true covers inhibition of ligand binding from 30% upward, false covers anything below 30%.

compound	answerLabel
COc1cc(/C=N/N2CCN(C3c4ccccc4-c4ccccc43)CC2)ccc1O	false
O=C1Nc2ccccc2SC(c2ccccc2)C1O (stereo unspecified)	true
COc1ccc(OC)c(N2C(=O)[C@@H]3C(c4ccccc4Cl)=NO[C@@H]3C2=O)c1	false
CC1=C(SCCC#N)S/C(=C2\SC(C)=C(SCCC#N)S2)S1	false
CN1CCC(=NNC(=O)c2cn(-c3ccccc3)nc2-c2ccccc2)CC1	false
CCOc1cccc2cc(-c3cn4cc(C)ccc4n3)c(=O)oc12	false
Cn1c(C(=O)Nc2ccc3c(c2)OCO3)cc2c(=O)n(C)c3ccccc3c21	false
O=C(Nc1ccc2oc(-c3ccccc3F)nc2c1)c1cncc(Br)c1	true
CN1C(=O)CSc2ccc(NC(=O)N3CCC(N4CCCCC4)CC3)cc21	false
Cc1oc2cc(O)ccc2c(=O)c1Oc1ccccc1	true

====

# target: Estrogen receptor (Homo sapiens) (UniProt P03372)
# assayOverview: ERalpha ligand binders by competition, primary screen, cell-based, Cos7 ERalpha-GFP, flow cytometry (AID 1211);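 further: 0% = DMSO vehicle wells and 100% = no E2-Alexa633 signal left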
# protocolConditions: fluorescent ligand competition, binding inhibition, at 0.1 µM, stronger effect = higher value
outcomeMeasure: inhibition of ligand binding

compound	result
COc1ccc(OC)c(NC(=O)CSc2nc3ccccc3c3nc4ccccc4n23)c1	60%
COC(=O)c1ccc(CC(=O)c2ccc(O)cc2O)o1	9%
Oc1ccc(-c2nnc(-c3ccccc3)c(-c3ccccc3)n2)cc1	51%
COc1ccc2[nH]c3nc(SCc4nnc(-c5ccc(C)cc5)o4)nnc3c2c1	3%
O=C(NCc1ccco1)c1cc2ccc(O)cc2oc1=O	46%
CCc1ccc(Nc2cc(C(=O)NCCCN3CCOCC3)c3ccccc3n2)cc1	32%
O=C(Oc1ccc2c(c1)OCO2)c1cc2c(s1)CCC2	27%
COc1ccc(C2Nc3ccccc3C(=O)N2c2ccccc2)cc1CSc1ccccn1 (stereo unspecified)	17%
CCN(c1ccccc1)S(=O)(=O)c1cc(C(=O)O)ccc1C	20%
CCn1c(SCC(=O)N2CCOCC2)nc2oc3c(Cl)cc(Cl)cc3c(=O)c2c1=O	5%
NC(=O)c1c(NC(=O)c2cc3ccccc3o2)sc2c1CCC2	5%

====

Collected inhibition of ligand binding values appear next to each entry.
# target: Estrogen receptor (Homo sapiens) (UniProt P03372)
# assayOverview: ERalpha ligand binders by competition, primary screen, cell-based, Cos7 ERalpha-GFP, flow cytometry (AID 1211);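 further: 0% = DMSO vehicle wells and 100% = no E2-Alexa633 signal left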
# protocolConditions: fluorescent ligand competition, binding inhibition, at 0.1 µM, stronger effect = higher value
outcomeMeasure: inhibition of ligand binding

molecule	outcomeMeasure	result
Nc1ccc2nc(-c3cc(Cl)c(N)c(Cl)c3)[nH]c2c1	inhibition of ligand binding	6%
O=C(Cn1ncc2c(=O)oc3ccccc3c21)Nc1nc2ccccc2s1	inhibition of ligand binding	22%
COc1cc(C(Nc2ccccn2)c2ccc3ccc(C)nc3c2O)cc(OC)c1O (stereo not drawn)	inhibition of ligand binding	16%
CCCN(CCC)S(=O)(=O)c1ccc(NC(=O)Cc2cccs2)cc1	inhibition of ligand binding	18%
CCOc1ccccc1-n1nnnc1SCC(=O)NC(=O)NCc1ccco1	inhibition of ligand binding	5%
NS(=O)(=O)c1ccc2c(c1)C1C=CCC1C(C1CC=CCC1)N2 (stereo not drawn)	inhibition of ligand binding	17%
O=C(c1cc2sccc2n1Cc1ccccc1)N1CCc2ccccc21	inhibition of ligand binding	20%
COc1ccc(-c2cn3c(C)c(C(=O)Nc4ccncc4)sc3n2)cc1	inhibition of ligand binding	3%
Cc1ccc(/C=c2\sc3nc(-c4ccco4)nn3c2=O)o1	inhibition of ligand binding	26%
O=C(Nc1ccccc1N1CCOCC1)c1cc(-c2ccco2)nc2ccccc12	inhibition of ligand binding	22%
O=C(O)c1ccc2c(c1)-c1nc3ccccc3n1C2=O	inhibition of ligand binding	5%
O=S(=O)(c1cccc(-c2cn3cccnc3n2)c1)N1CCCCCC1	inhibition of ligand binding	48%
C/C(N)=C(/C#N)C(=O)CSc1nnc(Nc2cccc(C)c2C)s1	inhibition of ligand binding	16%
COc1ccc(C2Nc3ccccc3C(=O)N2c2ccc(C)cc2)cc1Cn1cc([N+](=O)[O-])cn1 (stereo not drawn)	inhibition of ligand binding	7%
COc1ccc(N2Cc3cccc(C(=O)N4CCN(C(=O)c5ccco5)CC4)c3C2=O)cc1	inhibition of ligand binding	38%
CCC(=O)Nc1ccc(C(=O)Cn2nc(C(=O)O)c3ccccc3c2=O)cc1	inhibition of ligand binding	30%
NC(=O)c1cccc2c1C(=O)N(C1CCCCC1)C2	inhibition of ligand binding	39%
CSc1nc2c(c(=O)[nH]1)C(c1cccs1)C1=C(CCCC1=O)N2 (stereo not drawn)	inhibition of ligand binding	30%
c1coc(-c2nn3c(-c4ccco4)nnc3s2)c1	inhibition of ligand binding	15%
Nc1nc(-c2ccc3c(c2)NC(=O)CO3)cs1	inhibition of ligand binding	12%
CCCC1=NN2C(=N)/C(=C\c3ccc(SCc4ccco4)o3)C(=O)N=C2S1	inhibition of ligand binding	26%
O=C1c2ccccc2C(=O)N1CCCc1nc2ccccc2c(=O)n1CCCn1ccnc1	inhibition of ligand binding	23%
Cc1ccc(Oc2cc(N3CCOCC3)nc(-c3ccccc3)n2)cc1	inhibition of ligand binding	66%

====

# target: Estrogen receptor (Homo sapiens)
# assayOverview: ERalpha ligand binders by competition, primary screen, cell-based, Cos7 ERalpha-GFP, flow cytometry (AID 1211);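 further: 0% = DMSO vehicle wells and 100% = no E2-Alexa633 signal left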
# protocolConditions: fluorescent ligand competition, at 10 µM, stronger effect = higher value

compound	resultUnits	inhibition of ligand binding
C=CCn1c(=O)c(C#N)cc2c(=O)n3ccccc3nc21	%	38
CCOc1cc2c(c([N+](=O)[O-])c1)NC(c1ccccc1)C1CC=CC21 (configuration not stated)	%	12
COc1ccccc1NC(=O)c1ccccc1NC(=O)c1cc(Cl)ccc1NC(=O)c1ccco1	%	32
O=C(Nc1ccccc1N1CCOCC1)c1cc(-c2ccco2)nc2ccccc12	%	15
CSc1ccccc1NC(=O)c1noc2c1CCC2	%	56
O=C(Nc1ccccc1[N+](=O)[O-])C1=C(O)CCn2c1nc1ccccc12	%	20
COc1ccc(NC(=O)c2ccco2)cc1N	%	2
Cc1nn(-c2ccccc2)c(Cl)c1/C=N/Nc1ccc(S(=O)(=O)Nc2ccccc2C(=O)O)cc1[N+](=O)[O-]	%	38
CC(Oc1ccc(Cl)cc1Cl)C(=O)Nc1ccc2oc(-c3ccncc3)nc2c1 (configuration not stated)	%	48
Cc1cccc(N2CCN(C(=O)c3cc4c(=O)n(C)c5ccccc5c4n3C)CC2)c1C	%	55
COc1ccc(C(=O)N/N=C(\C)c2ccc3c(c2)C2C=CCC2C(c2ccccc2)N3)cc1 (configuration not stated)	%	73
CN(C)CC(=O)N1c2ccccc2CCc2ccc(NC(=O)c3ccc(N)cc3)cc21	%	44
CCCC1Nc2ccc(C(=O)O)cc2C2C=CCC12 (configuration not stated)	%	22
COc1ccc2[nH]c3nc(SCc4nnc(-c5ccc(C)cc5)o4)nnc3c2c1	%	64
Cc1occc1C(=O)NCc1cccc(CNC(=O)c2ccoc2C)c1	%	39
CC1(C)CC(=O)c2c(oc3cc(O)c(O)cc23)C1	%	20
O=C(Cn1c(=O)n(Cc2ccco2)c(=O)c2c3c(sc21)CCCCC3)Nc1ccccc1	%	51
COc1ccc(-c2nnc(-c3cc4c(ccc5ccccc54)oc3=O)o2)cc1	%	58
O=C(/C=C/c1ccc(O)cc1)c1ccc(O)cc1O	%	62
Cn1cccc1/C=C1\SC(=O)N(c2ccc(O)cc2)C1=O	%	45
CCCOc1ccc(-c2nn(-c3ccccc3)cc2/C=C2\SC(N)=NC2=O)cc1	%	50
COc1cc(C2CC(=O)c3c(ccc4ccccc34)N2)ccc1O (configuration not stated)	%	0
